B1: LINE1-full (parent)
chain: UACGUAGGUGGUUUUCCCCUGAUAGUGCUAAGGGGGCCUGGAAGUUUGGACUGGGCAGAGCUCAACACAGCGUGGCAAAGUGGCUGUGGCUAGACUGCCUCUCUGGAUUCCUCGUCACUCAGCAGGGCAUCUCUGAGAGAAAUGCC

variants of: B1; experiment: self-cleavage, relative activity (ratio to wild type); higher = more cleavage; in vitro, sequencing; the parent is a self-cleaving ribozyme
measuredParameter: self-cleavage
Write the value as a bare number.

Solved entries (count: 5):
>>> df
   variantdescriptor  reading
0          U26C G58U     0.04
1          U9A U108C      0.9
2         A43G G106A     1.36
3              C118G     1.27
4           U9C A22U     0.89

## Input Which self-cleavage value is on record for U26A A138U ?
## Output 0.78

## Input Which self-cleavage value is on record for A6U G54U ?
## Output 0.94

## Input Which self-cleavage value is on record for G35C A65G ?
## Output 0.04

## Input Which self-cleavage value is on record for A42G C120A ?
## Output 1.54

## Input Which self-cleavage value is on record for U29C U115C ?
## Output 1.75

All figures here come from the RNAGym collection of RNA variant scans (doi:10.7554/elife.90254).
